This section presents molecules with their documented IC50 values.
# tested.system: NTCP (Homo sapiens, UniProt Q14973)
# Construct: expressed in transfected cells
# Sequence (Q14973 1-349): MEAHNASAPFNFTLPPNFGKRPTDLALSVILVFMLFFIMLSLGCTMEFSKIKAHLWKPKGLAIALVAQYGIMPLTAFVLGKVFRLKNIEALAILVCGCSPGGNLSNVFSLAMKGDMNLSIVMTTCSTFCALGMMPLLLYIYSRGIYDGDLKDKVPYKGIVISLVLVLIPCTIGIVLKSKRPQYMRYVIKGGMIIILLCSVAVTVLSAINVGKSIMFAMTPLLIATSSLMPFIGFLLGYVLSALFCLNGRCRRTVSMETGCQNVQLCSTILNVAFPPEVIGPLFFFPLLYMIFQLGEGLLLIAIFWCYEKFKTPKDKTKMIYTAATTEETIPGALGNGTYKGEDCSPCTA
# method.summary: [3H]preS1 (myr-preS1_2-48 lipopeptide) binding inhibition in NTCP-HEK293 cells
# condition.details: 95% confidence interval; inhibition of 5 nM [3H]preS1 binding; NTCP-HEK293 cells; 10 min, 37 °C; read-out: IC50 ([3H]preS1 binding)
# Protocol: The major goal of the present study was to analyze in parallel the effect of inhibitors on both, bile acid transport via NTCP and myr-preS1_2-48 lipopeptide binding to NTCP in a cell culture system. […] Half maximal inhibitory concentrations (IC50) were calculated by nonlinear regression analysis using the equation log(inhibitor) versus response (GraphPad Prism). […] Transport rates and [^3H]preS1 binding were determined in counts per minute (cpm). […]

Here's what some known entries look like.
C=C(C)C1CCC2(COC(C)=O)CCC3(C)C(CCC4C5(C)CCC(OC(C)=O)C(C)(C)C5CCC43C)C12 (stereo not drawn)
52.6 to 756 µM
C=C(C)[C@@H]1CC[C@]2(COC(=O)CC(C)(C)CC(=O)O)CC[C@]3(C)[C@H](CC[C@@H]4[C@@]5(C)CC[C@H](OC(=O)CC(C)(C)CC(=O)O)C(C)(C)[C@@H]5CC[C@]43C)[C@@H]12
4.97 to 10.1 µM

Need IC50 of CC(=O)OC[C@]12CC[C@@H](C3(C)CO3)[C@@H]1[C@H]1CC[C@@H]3[C@@]4(C)CC[C@H](OC(C)=O)C(C)(C)[C@@H]4CC[C@@]3(C)[C@]1(C)CC2 (stereo partly drawn) , thanks. 26.5 to 73 µM

Values were extracted from paper PMC7729925.
